- Experimental system: human ether-à-go-go-related gene (hERG) potassium channel (human, UniProt Q12809);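 further: peak tail current of the secondary pulse compared with the same well before compound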
- Sequence (Q12809 whole entry, looked up): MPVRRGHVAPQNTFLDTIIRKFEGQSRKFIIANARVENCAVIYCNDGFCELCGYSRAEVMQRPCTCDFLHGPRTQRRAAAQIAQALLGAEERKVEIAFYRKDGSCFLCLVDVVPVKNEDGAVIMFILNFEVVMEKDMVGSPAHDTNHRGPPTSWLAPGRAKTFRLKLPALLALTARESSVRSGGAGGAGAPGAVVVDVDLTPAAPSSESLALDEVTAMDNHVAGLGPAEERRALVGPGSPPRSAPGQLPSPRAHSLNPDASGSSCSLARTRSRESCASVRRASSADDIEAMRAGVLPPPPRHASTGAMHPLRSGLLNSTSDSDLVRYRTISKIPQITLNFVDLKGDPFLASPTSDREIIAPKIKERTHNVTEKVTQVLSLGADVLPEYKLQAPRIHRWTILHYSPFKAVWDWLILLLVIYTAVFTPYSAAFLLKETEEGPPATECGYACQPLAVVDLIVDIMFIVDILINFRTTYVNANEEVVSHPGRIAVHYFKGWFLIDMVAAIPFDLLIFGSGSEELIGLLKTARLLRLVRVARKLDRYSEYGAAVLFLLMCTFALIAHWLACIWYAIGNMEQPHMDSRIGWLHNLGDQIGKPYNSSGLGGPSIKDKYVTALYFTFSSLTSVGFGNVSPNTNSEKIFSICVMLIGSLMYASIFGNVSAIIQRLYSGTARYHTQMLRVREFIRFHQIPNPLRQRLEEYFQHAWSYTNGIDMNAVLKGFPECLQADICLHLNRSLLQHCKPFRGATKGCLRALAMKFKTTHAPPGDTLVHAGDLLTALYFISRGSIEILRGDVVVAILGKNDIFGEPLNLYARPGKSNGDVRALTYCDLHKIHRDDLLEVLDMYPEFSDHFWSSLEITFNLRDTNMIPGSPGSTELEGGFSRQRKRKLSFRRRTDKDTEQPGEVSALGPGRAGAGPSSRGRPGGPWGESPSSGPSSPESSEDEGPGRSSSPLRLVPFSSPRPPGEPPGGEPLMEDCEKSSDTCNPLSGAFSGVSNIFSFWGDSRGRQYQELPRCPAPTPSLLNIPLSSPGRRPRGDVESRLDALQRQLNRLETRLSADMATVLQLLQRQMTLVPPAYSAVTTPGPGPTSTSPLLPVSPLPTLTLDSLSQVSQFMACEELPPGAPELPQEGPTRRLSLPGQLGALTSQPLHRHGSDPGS
- Experimental protocol: primary screen, population patch clamp on CHO cells stably expressing hERG; higher = less effect of the substance
About 14,000 (4.5%) of roughly 310,000 compounds showed an effect of 50% or more. Effects have a minus sign here. Only a selection was taken, and strong results are over-represented in it overall.
Readout name: hERG current change (%, negative = inhibition) at 10uM (%)
State the answer as a number, implicitly in %.

Entry `O=C(NCCCN1CCOCC1)c1sc2cc(F)ccc2c1Cl` : hERG current change (%, negative = inhibition) at 10uM on human ether-à-go-go-related gene (hERG) potassium channel (human, UniProt Q12809) = -44

Entry `O=C(NCCCN1CCOCC1)c1sc2cc([N+](=O)[O-])ccc2c1Cl` : hERG current change (%, negative = inhibition) at 10uM on human ether-à-go-go-related gene (hERG) potassium channel (human, UniProt Q12809) = -54

Entry O=C(Nc1ncc(C(F)(F)F)cc1Cl)C1COc2ccccc2O1 (stereo not drawn) : hERG current change (%, negative = inhibition) at 10uM on human ether-à-go-go-related gene (hERG) potassium channel (human, UniProt Q12809) = -3.76

Entry CC(C)Oc1cccc(C(=O)C2CCCN(C(=O)c3ccc4c(c3)OCO4)C2)c1 (stereo not drawn) : hERG current change (%, negative = inhibition) at 10uM on human ether-à-go-go-related gene (hERG) potassium channel (human, UniProt Q12809) = -26.9

Entry O=C(c1ccc2c(c1)OCO2)C1CCCN(Cc2ccc(OC(F)F)cc2)C1 (stereo not drawn) : hERG current change (%, negative = inhibition) at 10uM on human ether-à-go-go-related gene (hERG) potassium channel (human, UniProt Q12809) = -85.7

Entry `COC(=O)CSc1nnc(COc2ccc3ccccc3c2)o1` : hERG current change (%, negative = inhibition) at 10uM on human ether-à-go-go-related gene (hERG) potassium channel (human, UniProt Q12809) = 19

Entry `CN(C)C(=O)c1cc2cc([N+](=O)[O-])ccc2s1` : hERG current change (%, negative = inhibition) at 10uM on human ether-à-go-go-related gene (hERG) potassium channel (human, UniProt Q12809) = -38.9

Entry `O=C(NCCN1CCOCC1)c1sc2cc(Cl)ccc2c1Cl` : hERG current change (%, negative = inhibition) at 10uM on human ether-à-go-go-related gene (hERG) potassium channel (human, UniProt Q12809) = -10.3

Entry `CCCCOc1ccc(/C=C/C(=O)N(CC)CC(=O)Nc2ccc3c(c2)OCCO3)cc1OC` : hERG current change (%, negative = inhibition) at 10uM on human ether-à-go-go-related gene (hERG) potassium channel (human, UniProt Q12809) = -28.9

Entry `O=C(NCCCN1CCOCC1)c1sc2cc(Cl)ccc2c1Cl` : hERG current change (%, negative = inhibition) at 10uM on human ether-à-go-go-related gene (hERG) potassium channel (human, UniProt Q12809) = -69.6

Entry CC1=C(C(=O)OC(C)C)C(c2ccc(Br)s2)NC(=O)N1 (stereo not drawn) : hERG current change (%, negative = inhibition) at 10uM on human ether-à-go-go-related gene (hERG) potassium channel (human, UniProt Q12809) = -48

Entry `Cl.Fc1ccc2c(c1)nnn2C1CCN(Cc2nnnn2C2CCCCC2)CC1` : hERG current change (%, negative = inhibition) at 10uM on human ether-à-go-go-related gene (hERG) potassium channel (human, UniProt Q12809) = -38.1

Entry `CCCNC(=O)c1cc2cc([N+](=O)[O-])ccc2s1` : hERG current change (%, negative = inhibition) at 10uM on human ether-à-go-go-related gene (hERG) potassium channel (human, UniProt Q12809) = -9.82

Entry `O=C(NCCCN1CCOCC1)c1sc2ccccc2c1Cl` : hERG current change (%, negative = inhibition) at 10uM on human ether-à-go-go-related gene (hERG) potassium channel (human, UniProt Q12809) = -9.81

Entry `C=CCn1c(-c2ccc(Cl)cc2)c[nH]c1=S` : hERG current change (%, negative = inhibition) at 10uM on human ether-à-go-go-related gene (hERG) potassium channel (human, UniProt Q12809) = 19.4

Entry CC1=CCC2C(=O)N(CCc3c[nH]c4ccccc34)C(=O)C2C1 (stereo not drawn) : hERG current change (%, negative = inhibition) at 10uM on human ether-à-go-go-related gene (hERG) potassium channel (human, UniProt Q12809) = -9.31

Entry `Cc1cc(Br)c(NC(=O)Cn2c([N+](=O)[O-])cnc2C)cc1C` : hERG current change (%, negative = inhibition) at 10uM on human ether-à-go-go-related gene (hERG) potassium channel (human, UniProt Q12809) = 4.01

Entry `O=C(NCCN1CCOCC1)c1ccc([N+](=O)[O-])cc1[N+](=O)[O-]` : hERG current change (%, negative = inhibition) at 10uM on human ether-à-go-go-related gene (hERG) potassium channel (human, UniProt Q12809) = -0.151

Entry `O=C(O)CCC(=O)N1CCC(n2nnc3cc(C(F)(F)F)ccc32)CC1` : hERG current change (%, negative = inhibition) at 10uM on human ether-à-go-go-related gene (hERG) potassium channel (human, UniProt Q12809) = 10.5

Entry `O=C(NCCN1CCOCC1)c1cc([N+](=O)[O-])ccc1Cl` : hERG current change (%, negative = inhibition) at 10uM on human ether-à-go-go-related gene (hERG) potassium channel (human, UniProt Q12809) = 6.5

Entry `O=C(NCCN1CCOCC1)c1sc2ccccc2c1Cl` : hERG current change (%, negative = inhibition) at 10uM on human ether-à-go-go-related gene (hERG) potassium channel (human, UniProt Q12809) = -6.21
